- Test System: HA H1 A/California/07/09 (Influenza A virus (A/California/07/2009(H1N1)))
- Measurement Protocol: biochemical
- Assay Context: Competition binding (AlphaLISA), pIC50 H1 A/California/07/09
Quantity: IC50

Look over these answered cases.
Cc1nnc(C(c2ccccc2)N2CCN(C(=O)c3cc(-c4nc5cc(OC(F)(F)F)ccc5o4)ccn3)CC2)s1 (stereo not shown) :: 251 nM
COCCNC(=O)C(c1ccccc1)N1CCN(C(=O)c2cccc(-c3nc4ccc(OC)cc4s3)c2)CC1 (stereo not shown) :: 100 nM
Cc1nnc(C(c2ccccc2)N2CCN(C(=O)c3cc(-c4nc5cc(C(F)(F)F)ccc5o4)ccn3)CC2)o1 (stereo not shown) :: 31.6 nM
COCC(c1ccccc1)N1CCN(C(=O)c2cccc(-c3nc4ccc(OC)cc4s3)c2)CC1 (stereo not shown) :: 251 nM
CNC(=O)N(Cc1ccccc1)C1CCN(C(=O)c2cccc(-c3nc4ccc(OC)cc4s3)c2)CC1 :: 251 nM
Cc1nc([C@@H](c2ccccc2)N2CCN(C(=O)c3cc(-c4nc5cc(OC(F)(F)F)ccc5o4)ccn3)CC2)n[nH]1 :: 39.8 nM

# context switch: different compound, same IC50
Task: For the compound CC(=O)Nc1ccc2oc(-c3cccc(C(=O)N4CCN(C(c5ccccc5)c5n[nH]c(C)n5)CC4)c3)nc2c1 (stereo not shown) , what IC50 is on record?
Result: 20 nM

###

- Test System: HA H1 A/New Caledonia/20/99 (Influenza A virus (A/New Caledonia/20/1999(H1N1)), UniProt Q6WG00)
- Measurement Protocol: biochemical
- Assay Context: Competition binding (AlphaLISA), pIC50 H1 A/New Caledonia/20/99
Quantity: log10 of IC50 (log10 of the value in nM)
log10 IC50, nM

Example entries begin here.
COC(=O)C(c1ccccn1)C1CCN(C(=O)c2cccc(-c3nc4ccc(OC)cc4s3)c2)CC1 (stereo not drawn) [Example 66] :: 1.80
Cc1nnc([C@@H](c2ccccc2)N2CCN(C(=O)c3cccc(-c4nc5cc(C(F)(F)F)ccc5o4)c3)CC2)o1 [Example 27] :: 1.70
CC(=O)Nc1ccc2oc(-c3ccnc(C(=O)N4CCN(C(c5ccccc5)c5n[nH]c(C)n5)CC4)c3)nc2c1 (stereo not drawn) [Example 5] :: 1.20
Cc1nnc([C@@H](c2ccccc2)N2CCN(C(=O)c3cccc(-c4nc5cc(C(F)(F)F)ccc5o4)c3)CC2)o1 [Example 69] :: 1.90
Cc1nnc(C(c2ccccc2)N2CCN(C(=O)c3cc(-c4nc5ccccc5o4)ccc3F)CC2)o1 (stereo not drawn) [Example 52] :: 2.30
COC(=O)C(c1ccccc1)C1CCN(C(=O)c2cccc(-c3ccc(OC)cc3)c2)CC1 (stereo not drawn) [Example 130] :: 2.80
COc1ccc2nc(-c3cccc(C(=O)N4CCN(C(c5ccccc5)c5noc(C)n5)CC4)c3)sc2c1 (stereo not drawn) [Example 98] :: 2.10
Cc1nnc(C(c2ccccc2)N2CCN(C(=O)c3cccc(-c4nc5ccncc5o4)c3)CC2)o1 (stereo not drawn) [Example 102] :: 2.40

Task: Entry COC(=O)C(c1ccccc1)N1CCN(C(=O)c2ccc(-c3nc4ccc(OC)cc4s3)o2)CC1 (stereo not drawn) [Example 80] has what log10 of IC50?
Result: 2.40

Task: // repeat for Cc1nnc(C(c2ccccc2)N2CCN(C(=O)c3cccc(-c4nc5cccnc5o4)c3)CC2)o1 (stereo not drawn) [Example 129] and report
Result: 2.70

Task: Check COc1nnc(C(c2ccccc2)N2CCN(C(=O)c3cc(-c4nc5cc(OC(F)(F)F)ccc5o4)ccn3)CC2)o1 (stereo not drawn) [Example 21] too.
Result: 1.30

Task: Param item: Cc1nnc(C(c2ccccc2)N2CCN(C(=O)c3cc(-c4nc5cc(OC(F)(F)F)ccc5o4)ccn3)CC2)o1 (stereo not drawn) [Example 28]
Result: 1.30

###

- Measurement Protocol: in vitro
- Assay Context: dog, Cytotoxicity (pCC50) MDCK
Here the recorded CC50 is given for each entry.
// note: answer is a bare numeric in µM

Cc1cnc(C(c2ccccc2)N2CCN(C(=O)c3cc(-c4nc5cc(OC(F)(F)F)ccc5o4)ccn3)CC2)o1 (centres unmarked) :: 25.1

Task: Would you mind telling me what CC50 value was observed for O=C(c1cc(-c2nc3cc(C(F)(F)F)ccc3o2)ccn1)N1CCN(C(c2ccccc2)c2nnc(C3CC3)o2)CC1 (centres unmarked) ?
Result: 39.8

###

- Measurement Protocol: in vitro
- Assay Context: dog, Cytotoxicity (pCC50) MDCK
Measured CC50 of individual entries

CC(=O)Nc1ccc2oc(-c3ccnc(C(=O)N4CCN([C@H](c5ccccc5)c5nnc(C)o5)CC4)c3)nc2c1 [Example 15] :: > 50.1 µM
CNC(=O)c1cnc(-c2cccc(C(=O)N3CCN(C(C(=O)OC)c4ccccc4)CC3)c2)s1 (centres unmarked) [Example 64] :: > 50.1 µM
COC(=O)C(c1ccccc1)N1CCN(C(=O)c2cccc(-c3nc4cc(OC5CC5)ccc4o3)c2)CC1 (centres unmarked) [Example 1] :: > 50.1 µM
Cn1ccc(C(c2ccccc2)N2CCN(C(=O)c3cccc(-c4nc5cc(C(F)(F)F)ccc5o4)c3)CC2)n1 (centres unmarked) [Example 53] :: > 50.1 µM

Read the next record carefully.
Task: Data request, read-out CC50, for COC(=O)C(c1ccccc1)N1CCN(C(=O)c2cccc(-c3nc4ccncc4o3)c2)CC1 (centres unmarked) [Example 43]
Result: > 50.1 µM

###

- Test system: MDCK cells
- Assay Context: dog
A collection of molecules and their measured Cytotoxicity (pCC50) MDCK

Cc1nnc([C@@H](c2ccccc2)N2CCN(C(=O)c3cccc(-c4nc5cc(C(F)(F)F)ccc5o4)c3)CC2)o1 [Example 27] :: <4.3
COC(=O)[C@@H](c1ccccc1)N1CCN(C(=O)c2cccc(-c3nc4ccc(OC)cc4s3)c2)CC1 [Example 22] :: <4.3

Turning now to a further record.
Task: Requested read-out Cytotoxicity (pCC50) MDCK, target or system MDCK cells, entry COC(=O)C(c1ccccc1)N1CCN(C(=O)c2cccc(-c3ccc(OC)cc3)c2)CC1 (stereo not drawn) [Example 128]
Result: <4.3

###

- Test System: HA H1 A/California/07/09 (Influenza A virus (A/California/07/2009(H1N1)))
- Measurement Protocol: biochemical
- Assay Context: Competition binding (AlphaLISA), pIC50 H1 A/California/07/09
Quantity: pIC50
By convention, pIC50 is the negative base-10 log of a molar concentration.

NCc1nnc(C(c2ccccc2)N2CCN(C(=O)c3cccc(-c4nc5cc(C(F)(F)F)ccc5o4)c3)CC2)o1 (stereo not drawn) [Example 75] :: 6.70
COC(=O)C(c1ccccc1)C1CCN(C(=O)c2cccc(-c3nc4ccc(OC)cc4[nH]3)c2)CC1 (stereo not drawn) [Example 123] :: 6.20
COC(=O)[C@@H](c1ccccc1)N1CCN(C(=O)c2cccc(-c3nc4ccc(OC)cc4s3)c2)CC1 [Example 19] :: 7.70
COC(=O)C(c1ccccc1)N1CCN(C(=O)c2cccc(-c3nc4ccc(OC)cc4o3)c2)CC1 (stereo not drawn) [Example 60] :: 7.20
CNc1ccc2oc(-c3cccc(C(=O)N4CCN(C(C(=O)OC)c5ccccc5)CC4)c3)nc2c1 (stereo not drawn) [Example 9] :: 8.20

Task: Name the reported pIC50 value associated with the compound COC(=O)C(c1ccccc1)N1CCN(C(=O)c2cccc(-c3nc4cc(O)ccc4o3)c2)CC1 (stereo not drawn) [Example 30]
Result: 7.60

###

- Test System: HA H5 A/Vietnam/1203/04 (Influenza A virus (A/Vietnam/1203/2004(H5N1)), UniProt Q5EP31)
- Measurement Protocol: biochemical
- Assay Context: Competition binding (AlphaLISA), pIC50 H5 A/Vietnam/1203/04
Doc: threshold 1000 nM (exclusive). Items with IC50 beneath it return Y; others return N.

CC(=O)Nc1ccc2oc(-c3ccnc(C(=O)N4CCN(C(c5ccccc5)c5n[nH]c(C)n5)CC4)c3)nc2c1 (stereo not drawn) :: Y
COCCNC(=O)C(c1ccccc1)N1CCN(C(=O)c2cccc(-c3nc4ccc(OC)cc4s3)c2)CC1 (stereo not drawn) :: Y
Cc1nnc([C@@H](c2ccccc2)N2CCN(C(=O)c3cccc(-c4nc5cc(C(F)(F)F)ccc5o4)c3)CC2)o1 [Example 27] :: N
CCOC(=O)C(c1ccccc1)N1CCN(C(=O)c2cccc(-c3ccc(OC)cc3)c2)CC1 (stereo not drawn) :: N

Task: Decide: IC50 of Cn1nnc([C@@H](c2ccccc2)N2CCN(C(=O)c3cc(-c4nc5cc(OC(F)(F)F)ccc5o4)ccn3)CC2)n1 strictly below 1000 nM?
Result: Y

###

- System: H1N1 A/New Caledonia/20/99
- Measurement Protocol: microbe, parasite or virus in culture
- Type: cell-based, influenza A virus
- Assay Context: Influenza A virus, H1N1, MDCK, 96 h, read-out: Virus neutralization assay (VNA), pEC50 H1N1 A/New Caledonia/20/99 (converted)
EC50 values, listed per item
Provide the reading as a plain figure in nM.

Task: I'd like to know its EC50. The molecule in question is COc1ccc2oc(-c3ccnc(C(=O)N4CCN(C(c5ccccc5)c5nnc(C)o5)CC4)c3)nc2c1 (stereo not drawn)
Result: 79.4

Task: What about this molecule? COc1nnc(C(c2ccccc2)N2CCN(C(=O)c3cc(-c4nc5cc(OC(F)(F)F)ccc5o4)ccn3)CC2)o1 (stereo not drawn)
Result: 79.4

Task: Now consider CC(=O)Nc1ccc2oc(-c3ccnc(C(=O)N4CCN([C@H](c5ccccc5)c5n[nH]c(C)n5)CC4)c3)nc2c1 .
Result: 2.51

Task: Would you mind doing COc1ccc2nc(-c3cccc(C(=O)N4CCN(C(CO)c5ccccc5)CC4)c3)sc2c1 (stereo not drawn) as well?
Result: 631

Task: Likewise for CNC(=O)c1cnc(-c2cccc(C(=O)N3CCN(C(C(=O)OC)c4ccccc4)CC3)c2)s1 (stereo not drawn) ?
Result: 501

Task: And the next one, COC(=O)[C@H](c1ccccc1)N1CCN(C(=O)c2cccc(-c3nc4cc(OC)ccc4o3)c2)CC1 ?
Result: 1000

Task: Also check COC(=O)C(c1ccccc1)N1CCN(C(=O)C2CCCN(c3nc4ccc(OC)cc4s3)C2)CC1 (stereo not drawn)
Result: 1260

Task: Next molecule: COC(=O)[C@@H](c1ccccc1)N1CCN(C(=O)c2cccc(-c3nc4cc(C(F)(F)F)ccc4o3)c2)[C@@H](CC(N)=O)C1
Result: 398

Reference source for all entries: patent US11040963B2
